tested on: wheat powdery mildew; assay: fungicidal activity in vivo, wheat powdery mildew on wheat seedling leaves; conditions: 400 mg/L, spray, investigated after 7 days
observation_type: wheat powdery mildew control % (%)
Give just the number in %; leave the unit off.

Query: Recall the reported wheat powdery mildew control % of CCCCc1c(C)nc(Nc2ccc(OC(F)(F)F)cc2)nc1OC(=O)OC(C)C [Compound 53] when tested on wheat powdery mildew.
Response: 50

Query: Recall the reported wheat powdery mildew control % of CCCCc1c(C)nc(Nc2ccccc2)nc1OC(=O)OC(C)C [Compound 46] when tested on wheat powdery mildew.
Response: 100

Query: Recall the reported wheat powdery mildew control % of CCCCOC(=O)Oc1nc(Nc2ccccc2)nc(C)c1CCCC [Compound 101] when tested on wheat powdery mildew.
Response: 100

Query: Recall the reported wheat powdery mildew control % of CC(C)OC(=O)Oc1nc(Nc2ccc(F)c(F)c2F)nc2c1CCCC2 [Compound 443] when tested on wheat powdery mildew.
Response: 0

Query: Recall the reported wheat powdery mildew control % of CC(C)OC(=O)Oc1nc(Nc2ccccc2)nc2c1CCC2 [Compound 393] when tested on wheat powdery mildew.
Response: 0

Query: Recall the reported wheat powdery mildew control % of COC(=O)Oc1cc(C2CC2)nc(Nc2ccccc2)n1 [Compound K2, reference compound] when tested on wheat powdery mildew.
Response: 0

====

test system: wheat powdery mildew; assay: fungicidal activity in vivo, wheat powdery mildew on wheat seedling leaves; settings: 400 mg/L, spray, investigated after 7 days
Hi there, I'd appreciate the recorded wheat powdery mildew control % for every entry that follows.
Write the figure, then the unit, nothing else.

Query: For the compound Cc1nc(Nc2ccccc2)nc(OC(=O)OC(C)C)c1C [Compound 253] , give its reported wheat powdery mildew control %.
Response: 0%

Query: For the compound CCCCc1c(C)nc(Nc2ccccc2)nc1OC(=O)OC(C)c1ccccc1 (stereo not drawn) [Compound 173] , give its reported wheat powdery mildew control %.
Response: 100%

Query: For the compound CCCCc1c(C)nc(Nc2ccc(OC(F)(F)F)cc2)nc1OC(=O)OC [Compound 13] , give its reported wheat powdery mildew control %.
Response: 95%

Query: For the compound CCCCc1c(C)nc(N(C)C)nc1OC(=O)OCC [Compound K1, reference compound] , give its reported wheat powdery mildew control %.
Response: 100%

Query: For the compound CCCCc1c(C)nc(Nc2ccccc2)nc1OC(=O)OCC [Compound 75] , give its reported wheat powdery mildew control %.
Response: 95%

Query: For the compound Cc1cc(OC(=O)OC(C)C)nc(Nc2ccccc2)n1 [Compound 270] , give its reported wheat powdery mildew control %.
Response: 0%

Query: For the compound CCCCc1c(C)nc(Nc2ccccc2)nc1OC(=O)OC [Compound 1] , give its reported wheat powdery mildew control %.
Response: 100%

Query: For the compound CCCCc1c(C)nc(Nc2ccccc2)nc1OC(=O)OCc1ccccc1 [Compound 156] , give its reported wheat powdery mildew control %.
Response: 100%

Query: For the compound CC(C)OC(=O)Oc1nc(Nc2ccccc2)nc2c1CCCC2 [Compound 427] , give its reported wheat powdery mildew control %.
Response: 0%

====

Hi there, I'd appreciate the recorded cucumber downy mildew control % for every entry that follows.
system: cucumber downy mildew; assay: fungicidal activity in vivo, cucumber downy mildew on cucumber seedling leaves; conditions: 400 mg/L, spray, investigated after 5 days
Give just the number in %; leave the unit off.

Query: For the molecule CCCCOC(=O)Oc1nc(Nc2ccccc2)nc(C)c1CCCC [Compound 101] , give its reported cucumber downy mildew control %.
Response: 70

Query: For the molecule CCCCc1c(C)nc(N(C)C)nc1OC(=O)OCC [Compound K1, reference compound] , give its reported cucumber downy mildew control %.
Response: 0

Query: For the molecule COC(=O)Oc1cc(C2CC2)nc(Nc2ccccc2)n1 [Compound K2, reference compound] , give its reported cucumber downy mildew control %.
Response: 0

Query: For the molecule CCCCc1c(C)nc(Nc2ccc(OC(F)(F)F)cc2)nc1OC(=O)OC(C)C [Compound 53] , give its reported cucumber downy mildew control %.
Response: 95

Query: For the molecule CCCCc1c(C)nc(Nc2ccc(OC(F)(F)F)cc2)nc1OC(=O)OC [Compound 13] , give its reported cucumber downy mildew control %.
Response: 30

Query: For the molecule CCCCc1c(C)nc(Nc2ccccc2)nc1OC(=O)OC [Compound 1] , give its reported cucumber downy mildew control %.
Response: 95

Query: For the molecule CCCCc1c(C)nc(Nc2ccccc2)nc1OC(=O)OC(C)c1ccccc1 (stereo not shown) [Compound 173] , give its reported cucumber downy mildew control %.
Response: 50
